target: Torsin-1A-interacting protein 1 (Homo sapiens) (UniProt Q5JTV8); test: LAP1 binders from COS7 cell lysate, primary screen, small-molecule microarray, 635/667 nm fluorescence (AID 1116); conditions: COS7-hLAP1 lysate binding, 635 nm fluorescence, higher = more signal
Sequence (Q5JTV8 whole entry, looked up): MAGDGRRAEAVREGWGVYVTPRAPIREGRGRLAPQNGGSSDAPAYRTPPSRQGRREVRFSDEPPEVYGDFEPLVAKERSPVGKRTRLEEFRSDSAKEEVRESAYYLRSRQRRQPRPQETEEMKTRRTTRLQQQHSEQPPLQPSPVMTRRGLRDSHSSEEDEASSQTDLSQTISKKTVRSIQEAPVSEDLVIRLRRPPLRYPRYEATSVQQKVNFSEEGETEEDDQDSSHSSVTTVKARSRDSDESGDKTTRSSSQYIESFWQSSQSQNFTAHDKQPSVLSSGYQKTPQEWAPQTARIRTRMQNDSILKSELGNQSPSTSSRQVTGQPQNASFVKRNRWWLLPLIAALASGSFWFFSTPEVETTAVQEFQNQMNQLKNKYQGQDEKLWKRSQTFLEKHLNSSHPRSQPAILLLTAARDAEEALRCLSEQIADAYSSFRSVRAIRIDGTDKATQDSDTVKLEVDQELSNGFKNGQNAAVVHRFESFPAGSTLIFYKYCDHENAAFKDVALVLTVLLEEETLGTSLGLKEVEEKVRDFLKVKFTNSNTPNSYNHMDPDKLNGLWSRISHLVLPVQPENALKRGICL
Respond with rule met for composite z-score values of 0.8 and above, rule not met for values below.

Determine whether this compound has composite z-score no lower than 0.8: O=C(NCc1ccccc1)[C@@]1(Cc2ccccc2)N=C(c2ccc(OCCCO)cc2)O[C@H]1c1ccccc1
rule met

# repeat for O=C1C2C=CC(C(O)c3ccc(F)cc3)N(Nc3ccccc3F)C2C(=O)N1c1ccccc1 (stereo unspecified)
rule not met

# repeat for CN(C)CCCNC(=O)[C@@]1(c2ccc([N+](=O)[O-])cc2)CC(=O)N(C2CCCCC2)[C@@H]1c1ccc(CO)cc1I
rule not met

# repeat for COC(=O)[C@@]1(Cc2ccc(OC)cc2)[C@H]2c3cc(C(=O)N4CCCC4)n(Cc4ccsc4Br)c3C[C@H]2CN1C(=O)c1ccccc1
rule not met

# repeat for CC(=O)NCCCC[C@@H]1NC(=O)[C@@H]2C[C@H](C(=O)NCCCCCCNC(=O)CS)[C@H](c3cccc(OCCO)c3)N2C1=O
rule not met

# repeat for CC(=O)NCCCC[C@@H]1NC(=O)[C@@H]2C[C@H](C(=O)NCCCCN(C)C)[C@H](c3cccc(OCCO)c3)N2C1=O
rule not met

# repeat for COc1ccc([Si](C)(C)[C@H]2[C@H](CCO)O[C@@]3(C(=O)N(Cc4ccc(N5C(=O)COc6ccccc65)cc4)c4ccccc43)[C@@H]2C)cc1
rule not met

# repeat for [N-]=[N+]=NCc1ccccc1C[C@]1(C(=O)NCC(O)CO)N=C(c2ccc(OCCCO)cc2)O[C@H]1c1ccccc1 (stereo partly specified)
rule met

# repeat for CCCCN1CC=CC23O[C@@H]4C=CCOC(=O)[C@@H]4[C@H]2C(=O)N(CCCCCO)[C@@H]3C1=O (stereo partly specified)
rule met

# repeat for C=CCOC(=O)[C@H]1[C@@H]2C(=O)O[C@@H](c3ccccc3)[C@@H](c3ccccc3)N2[C@@H](c2ccc(OCCOC(=O)[C@@H]3C[C@@H]4C(=O)N[C@@H](CCCCN(C)C)C(=O)N4[C@@H]3c3ccc(O)cc3)cc2)[C@]12C(=O)Nc1ccc(I)cc12
rule met

# repeat for Cc1ccc(S[C@]2(C(=O)NC(C)C)CC(=O)N(Cc3ccccc3Cl)[C@@H]2c2ccc(CO)cc2I)cc1
rule not met

# repeat for O=C1C[C@]2(c3ccc([N+](=O)[O-])cc3)C(=O)N(CCN3CCOCC3)c3cc(CO)ccc3[C@H]2N1C1CCCCC1
rule not met

# repeat for COCCOC(=O)N1C(=O)[C@@]2(c3cc(C#CCCO)ccc31)[C@H](C(=O)N1CCc3cc(OC)c(OC)cc3C1)[C@H]1C(=O)O[C@H](c3ccccc3)[C@H](c3ccccc3)N1[C@@H]2c1ccc(O)cc1
rule met

# repeat for CC1CC/C=C\[C@H]2OC34C=CCN(C(C)(C)C)C(=O)[C@H]3N(CCCCCCO)C(=O)[C@@H]4C2C(=O)O1 (stereo partly specified)
rule not met

# repeat for O=C1[C@H]2C=C(Br)[C@H](C[C@@H]2c2ccccc2)[C@@]12CO2
rule not met
